target: JH2 domain of human Tyk2 (Homo sapiens (Human)); assay: JH2 Biochemical Assay (TR-FRET probe displacement); format: binding; details: JH2 domain of human Tyk2, TR-FRET probe displacement
Sequence (P29597 575-876): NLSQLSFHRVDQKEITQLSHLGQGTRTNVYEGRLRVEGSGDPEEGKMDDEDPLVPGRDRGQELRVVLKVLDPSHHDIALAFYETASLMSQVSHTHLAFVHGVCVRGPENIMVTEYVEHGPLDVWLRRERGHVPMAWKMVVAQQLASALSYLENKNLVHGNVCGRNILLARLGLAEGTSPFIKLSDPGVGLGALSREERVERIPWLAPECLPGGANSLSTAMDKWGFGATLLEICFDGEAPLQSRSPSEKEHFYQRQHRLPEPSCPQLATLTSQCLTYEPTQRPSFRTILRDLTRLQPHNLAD
pIC50: −log10 of the molar value.
Form field: pIC50 (one value per entry).

Solved entries (count: 5):
INSERT INTO results (compound, readout_name, observed_result) VALUES
  ('CC(=O)Nc1cc(Nc2ccnc(C(C)(F)F)n2)c(-c2ccc(F)cn2)cn1', 'pIC50', '≥ 8.00'),
  ('CC(=O)Nc1cc(Nc2cc(C)nc(C(C)(F)F)n2)c(OCC(F)C2CCC2)cn1 (stereo not shown)', 'pIC50', '≥ 8.00'),
  ('CC(=O)Nc1cc(Nc2cc(C)nc(C(C)(F)F)n2)c(-c2cc(C#N)ccn2)cn1', 'pIC50', '≥ 8.00'),
  ('COCc1cnc(-c2cnc(NC(C)=O)cc2Nc2cc(C)nc(C(C)(F)F)n2)nc1', 'pIC50', '≥ 8.00'),
  ('CC(=O)Nc1cc(Nc2cccc(C(C)(F)F)n2)c(-c2ccc(C#N)cn2)cn1', 'pIC50', '≥ 8.00');

Below: the item to evaluate.
Entry `COc1cnc(NC(C)=O)cc1Nc1cc(-c2cnc(N3CCOCC3)nc2)nc(C(C)(F)F)n1` — recorded pIC50 = 7.00 to 8.00
